TARGET_OF_ASSAY: Taq E507K (Thermus aquaticus, UniProt P19821 1-832, E507K)
ASSAY_DETAILS: EMSA; 95 mM KCl; 0.25 nM hairpin, 0.5-1000 nM enzyme, 1x Taq buffer (50 mM KCl for wild type, 95 mM KCl for mutants; full composition and pH not stated for this assay), 37 C, 30
SETTINGS: protein: recombinant, label: 5' 33P, recessed 3' end, 5' overhang
QUANTITY_NAME: pKd
# pKd is unitless: minus log10 of the molar concentration; print number only

Value of measured pKd for the entry hairpin primer-template (structured_DNA, 3' end blocked with dideoxy TMP (3' ddT; unclear whether the printed 3' T is the ddT or it is added)) DNA: CTCCAGACACGACGCAGTTGCCCGATGGTCGACGTTCGCGAAAGCGAACGTCGACCATCGGGCAACT : 8.96
